test: Cytotoxicity (MTT) of UV-absorbing compounds in HaCaT culture without irradiation; format: cell-based, human; settings: human, HaCaT keratinocytes, MTT, no irradiation, mean of 3 measurements
Quick reference for IC50 at 18 h among some molecules

{"Molecule": "COc1ccc(C(=O)c2ccccc2)c(O)c1 [2-hydroxy-4-methoxybenzophenone]", "IC50 at 18 h": "56 µM"}
{"Molecule": "O=c1c(O[C@@H]2O[C@H](CO)[C@@H](O)[C@H](O)[C@H]2O)c(-c2ccc(O)cc2)oc2cc(O)cc(O)c12 [astragalin]", "IC50 at 18 h": "78 µM"}
{"Molecule": "CC1=C(/C=C/C(C)=C/C=C/C(C)=C/C=C/C=C(C)/C=C/C=C(C)/C=C/C2=C(C)CCCC2(C)C)C(C)(C)CCC1 [beta-carotene]", "IC50 at 18 h": "7.3 µM"}
{"Molecule": "O=C(O)/C=C/c1c[nH]cn1 [trans-urocanic acid]", "IC50 at 18 h": "1100 µM"}
